- target-desc: JAK3 (Homo sapiens (Human), UniProt P52333)
- Sequence (P52333 whole entry): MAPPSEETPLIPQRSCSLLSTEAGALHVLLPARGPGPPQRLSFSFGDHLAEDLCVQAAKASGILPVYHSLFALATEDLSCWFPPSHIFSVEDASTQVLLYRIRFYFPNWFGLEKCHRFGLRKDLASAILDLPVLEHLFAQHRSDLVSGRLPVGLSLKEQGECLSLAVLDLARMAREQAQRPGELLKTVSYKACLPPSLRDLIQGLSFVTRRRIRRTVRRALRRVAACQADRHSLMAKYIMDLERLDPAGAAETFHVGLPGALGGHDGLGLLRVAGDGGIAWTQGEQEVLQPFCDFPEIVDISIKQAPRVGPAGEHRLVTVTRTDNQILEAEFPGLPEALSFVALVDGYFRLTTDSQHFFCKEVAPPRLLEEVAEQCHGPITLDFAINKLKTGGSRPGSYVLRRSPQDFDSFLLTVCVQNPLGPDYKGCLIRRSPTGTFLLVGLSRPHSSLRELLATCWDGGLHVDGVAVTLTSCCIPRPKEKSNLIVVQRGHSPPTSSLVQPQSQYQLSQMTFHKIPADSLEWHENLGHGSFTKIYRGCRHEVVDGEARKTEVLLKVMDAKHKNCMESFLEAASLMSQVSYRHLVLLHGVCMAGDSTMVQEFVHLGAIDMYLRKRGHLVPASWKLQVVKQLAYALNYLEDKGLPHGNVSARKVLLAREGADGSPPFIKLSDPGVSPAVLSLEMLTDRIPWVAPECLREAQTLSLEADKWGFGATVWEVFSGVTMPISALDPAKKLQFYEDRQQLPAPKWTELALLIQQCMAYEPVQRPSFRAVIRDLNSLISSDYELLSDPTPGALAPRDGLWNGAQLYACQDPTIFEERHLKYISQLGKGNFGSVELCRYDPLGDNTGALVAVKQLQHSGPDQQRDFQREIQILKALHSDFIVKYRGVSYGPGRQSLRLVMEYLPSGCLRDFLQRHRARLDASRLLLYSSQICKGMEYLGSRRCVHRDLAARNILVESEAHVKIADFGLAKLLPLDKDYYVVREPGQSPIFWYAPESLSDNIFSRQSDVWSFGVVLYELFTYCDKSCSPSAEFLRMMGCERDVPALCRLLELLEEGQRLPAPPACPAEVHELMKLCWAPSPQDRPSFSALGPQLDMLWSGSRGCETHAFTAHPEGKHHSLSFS
- experiment-summary: Z'-LYTE enzymatic activity detection, JAK3
- Assay type: biochemical
- condition-context: test compound 30 nM; read-out: JAK3 % inhibitory rate @30 nM
test-readout: inhibition at 0.03 µM (%)

- C=CC(=O)N(C)c1cc(Nc2ncc(F)c(NCCCNC(=O)c3ccc(C#N)cc3)n2)ccc1F: 106
- C=CC(=O)N(C)c1cc(Nc2ncc(Cl)c(NCCCNC(=O)c3cccc(C#N)c3)n2)ccc1F: 84
- C=CC(=O)N(C)c1cc(Nc2ncc(Cl)c(NCCCNC(=O)c3ccc(N(C)C)cc3)n2)ccc1F: 89
- C=CC(=O)Nc1cc(Nc2ncc(Cl)c(NCCCNC(=O)c3ccc(F)cc3)n2)ccc1F: 84
